Molecular target: muscarinic receptors
Assay: Radioligand binding: displacement of the muscarinic agonist 3H-Oxotremorine-M (3H-OXO-M) from rat cerebral cortex
Set-up: species or system Hooded Lister rats
Conditions: 2 nM 3H-OXO-M; rat cerebral cortex homogenate; 2 mM magnesium chloride; 37° C., 30 min; tested as the oxalate salt; oxalate salt
Counter-ions that a name gives are not always drawn.

molecule: CCc1noc(C2CN3CCC2C3)n1 (single isomer, unassigned; (-)) [Example E3, oxalate salt]
unitsText: nM
IC50: 36

###

Target: muscarinic receptors
Assay: Radioligand binding: displacement of the muscarinic agonist 3H-Oxotremorine-M (3H-OXO-M) from rat cerebral cortex
Design: species or system Hooded Lister rats
Details: 2 nM 3H-OXO-M; rat cerebral cortex homogenate; 2 mM magnesium chloride; 37° C., 30 min; tested as the oxalate salt
Where a name gives a salt, the structure may show the parent alone.
metricName: IC50 (nM)

compound: CCc1noc([C@@H]2CN3CC[C@@H]2C3)n1 (relative stereo) [Example E1, oxalate salt]
measuredValue: 31
--
compound: CCc1noc(C2CN3CCC2C3)n1 (single isomer, unassigned; (+)) [Example E2]
measuredValue: 26

###

Biological target: muscarinic receptors
Type: binding, Hooded Lister rats
Details: 0.27 nM 3H-QNB; rat cerebral cortex homogenate; 37° C., 30 min; tested as the oxalate salt
Counter-ions that a name gives are not always drawn.
Reported IC50 values for a set of molecules

molecule: CCc1noc(C2CN3CCC2C3)n1 (single isomer, unassigned; (+)) [Example E2]
IC50, nM: 1590
--
molecule: CCc1noc([C@@H]2CN3CC[C@@H]2C3)n1 (relative stereo) [Example E1, oxalate salt]
IC50, nM: 940
